Tested on: SCC 172
TEST DESCRIPTION: MTT assay, cytotoxicity by cellular proliferation
Type: cell-based
CONDITION DESCRIPTION: SCC172, cytotoxicity in the light
ASSAY METRIC: pIC50
Note on pIC50: it is the negative log10 of concentration, concentration in mol/L.

pIC50 measured on Oc1cccc(-c2c3nc(c(-c4cccc(O)c4)c4ccc([nH]4)c(-c4cccc(O)c4)c4nc(c(-c5cccc(O)c5)c5ccc2[nH]5)CC4)C=C3)c1 [FOSCAN, reference compound] = 4.90
